Source listed as ChEMBL document CHEMBL1287735.

For each record, write down the corresponding bioavailability.
- EXPERIMENT_DESCRIPTION: Oral bioavailability in Sprague-Dawley rat at 5 mg/kg
- Type: ADME, organism-based
- MEASUREMENT_PARAMETERS: Sprague-Dawley, in vivo
Field: numeric (%). Do not append units.

Data request: Suppose we examine the molecule C=C[C@@H]1C[C@]1(NC(=O)[C@@H]1C[C@@H]2CN1C(=O)[C@H](C(C)(C)C)NC(=O)OCC(C)(C)CCCCc1cccc3c1CN(C3)C(=O)O2)C(=O)NS(=O)(=O)c1cccc2c1COB2O ; what bioavailability value has been reported?
Data returned: 1.2

Data request: Can you share its bioavailability? I mean this molecule: CC(C)(C)OC(=O)N[C@H]1CCCCC/C=C\[C@@H]2C[C@@]2(C(=O)NS(=O)(=O)C2CC2)NC(=O)[C@@H]2C[C@@H](OC(=O)N3Cc4cccc(F)c4C3)CN2C1=O [DANOPREVIR]
Data returned: 20

---

- EXPERIMENT_DESCRIPTION: Clearance in Sprague-Dawley rat at 1 mg/kg, iv
- Type: ADME, organism-based
- Design: dose 1 mg/kg, route intravenous
- MEASUREMENT_PARAMETERS: in vivo
READOUT_KIND: clearance (mL/min/kg)
Give the value, in units of mL/min/kg, as a plain number.

Data request: // returns reported clearance for input C=C[C@@H]1C[C@]1(NC(=O)[C@@H]1C[C@@H]2CN1C(=O)[C@H](C(C)(C)C)NC(=O)OCC(C)(C)CCCCc1cccc3c1CN(C3)C(=O)O2)C(=O)NS(=O)(=O)c1cccc2c1COB2O
Data returned: 82

Data request: Return reported clearance; argument: CC(C)(C)OC(=O)N[C@H]1CCCCC/C=C\[C@@H]2C[C@@]2(C(=O)NS(=O)(=O)C2CC2)NC(=O)[C@@H]2C[C@@H](OC(=O)N3Cc4cccc(F)c4C3)CN2C1=O
Data returned: 10.7

Data request: // clearance lookup, key: O=C(N[C@H]1CCCCC/C=C\[C@@H]2C[C@@]2(C(=O)NS(=O)(=O)c2ccc3c(c2)B(O)OC3)NC(=O)[C@@H]2C[C@@H](OC(=O)N3Cc4cccc(F)c4C3)CN2C1=O)OC1CCCC1
Data returned: 111

---

- EXPERIMENT_DESCRIPTION: AUC (0 to infinity) in Sprague-Dawley rat at 5 mg/kg, po
- Assay type: ADME, organism-based, Plasma
- Set-up: time infinity, dose 5 mg/kg, route oral
- MEASUREMENT_PARAMETERS: Sprague-Dawley, plasma
What AUC(0-inf) was measured for each of the following?
Numeric only. Scale: ng·h/mL

Data request: Could you share which AUC(0-inf) value was measured for C=C[C@@H]1C[C@]1(NC(=O)[C@@H]1C[C@@H]2CN1C(=O)[C@H](C(C)(C)C)NC(=O)OCC(C)(C)CCCCc1cccc3c1CN(C3)C(=O)O2)C(=O)NS(=O)(=O)c1cccc2c1COB2O ?
Data returned: 14

Data request: Param item = CC(C)(C)OC(=O)N[C@H]1CCCCC/C=C\[C@@H]2C[C@@]2(C(=O)NS(=O)(=O)C2CC2)NC(=O)[C@@H]2C[C@@H](OC(=O)N3Cc4cccc(F)c4C3)CN2C1=O ; retrieve measured AUC(0-inf).
Data returned: 1750
